Molecular target: human TSLP (human, UniProt Q969D9 29-159)
Assay: cell-based or functional assay
measuredEndpoint: IC50 TARC (nM)
Number in nM, nothing else.

Example binders with recorded IC50 TARC:
BDG38.074 (antibody, V domains shown, also called BDG38.74) VH: QMQLVESGGGVVQPGRSLRLSCAASGFAFRTYGMHWVRQAPGKGLEWVAVIWDDGSNTHYADSVKGRFTITRDNSKNTLNLQMNSLRAEDTAVYYCVRAPQWYLTAEAFDLWGQGTMVTVSS VL: SYVLTQPPSVSVAPGQTATITCGGNMIGAYLVHWYQQKPGQAPLLVVYDDVDRPNRIPERFSGSNSGNTATLTISRVEAGDEADYYCQVWDHNTDKMVFGGGTKLTVL    2.77
BDG38.082 (antibody, V domains shown, IgG1) VH: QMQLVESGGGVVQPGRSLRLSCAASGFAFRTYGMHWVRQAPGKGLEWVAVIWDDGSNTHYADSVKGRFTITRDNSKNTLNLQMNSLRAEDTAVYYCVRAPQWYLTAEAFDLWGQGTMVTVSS VL: SYVLTQPPSVSVAPGETATITCGGNMIGGYLVHWYQQKPGQAPVLVIYDDVDRPDRIPERFSGSNSGNTATLTISRVEAGDEADYYCQVWDHDTNQVVFGGGTKLTVL    1.58
BDG38.094 (antibody, V domains shown, IgG1) VH: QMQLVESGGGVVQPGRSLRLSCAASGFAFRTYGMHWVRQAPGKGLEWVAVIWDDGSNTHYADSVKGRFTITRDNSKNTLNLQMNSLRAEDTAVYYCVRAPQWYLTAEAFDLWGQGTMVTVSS VL: SYVLTQPPSVSVAPGETASITCGGNLIGAYLVHWYQQKPGQAPLLVIYDDVDRPARIPERFSGSNSGNTATLTISRVEAGDEADYYCQVWDHNSNHMVFGGGTKLTVL    0.356
BDG38.081 (antibody, V domains shown, IgG1) VH: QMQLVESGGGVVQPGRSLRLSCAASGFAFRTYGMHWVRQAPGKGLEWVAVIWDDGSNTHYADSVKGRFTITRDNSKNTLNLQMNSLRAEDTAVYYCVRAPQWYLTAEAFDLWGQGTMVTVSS VL: SYVLTQPPSVSVAPGQTARITCGGNMIGAYLVHWYQQKPGQAPLLVIYDDVDRPDRIPERFSGSNSGNTATLTISRVEAGDEADYYCQVWDHNTQQMVFGGGTKLTVL    5.93

Continue with the binder presented below.
What value of IC50 TARC has been recorded for this entry: BDG38.076 (antibody, V domains shown, IgG1) VH: QMQLVESGGGVVQPGRSLRLSCAASGFAFRTYGMHWVRQAPGKGLEWVAVIWDDGSATHYADSVKGRFTITRDNSKNTLNLQMNSLRAEDTAVYYCVRAPQWYLTAEAFDLWGQGTMVTVSS VL: SYVLTQPPSVSVAPGETASITCGGNMIGGYLVHWYQQKPGQAPLLVIYDDVDRPARIPERFSGSNSGNTATLTISRVEAGDEADYYCQVWDHDTNHMVFGGGTKLTVL
3.21
